B1: 1ZHC (parent)
chain: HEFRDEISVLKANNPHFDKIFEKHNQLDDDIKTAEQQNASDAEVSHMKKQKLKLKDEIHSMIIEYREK

Variants of: B1
Test: folding stability dG (cDNA display proteolysis); higher = more stable
Settings: PBS, room temperature
reported endpoint: folding stability dG (kcal/mol)
# unit: kcal/mol | format: bare number

Example cases with answers are listed next.
mut: H46D
reported endpoint: folding stability dG
reading: 0.734
--
mut: E6P
reported endpoint: folding stability dG
reading: 0.04
--
mut: S45T
reported endpoint: folding stability dG
reading: 1.34
--
mut: D30F
reported endpoint: folding stability dG
reading: 0.817
--
mut: H46G
reported endpoint: folding stability dG
reading: 0.785
--
mut: Q37L
reported endpoint: folding stability dG
reading: 0.867

Qu. Any idea what its folding stability dG is? The variant is K11T
Ans. -0.058

Qu. What about D30C ?
Ans. 1.21

Qu. Next variant: A42P
Ans. 0.446

Qu. Now this one: S60R
Ans. 1.65

Qu. Then S40V ?
Ans. -0.512
